target: RSV F protein of subtype B strain 18537, on virus (respiratory syncytial virus subtype B …, UniProt P13843 26-574); assay: cell-based or functional assay
Sequence (P13843 26-574): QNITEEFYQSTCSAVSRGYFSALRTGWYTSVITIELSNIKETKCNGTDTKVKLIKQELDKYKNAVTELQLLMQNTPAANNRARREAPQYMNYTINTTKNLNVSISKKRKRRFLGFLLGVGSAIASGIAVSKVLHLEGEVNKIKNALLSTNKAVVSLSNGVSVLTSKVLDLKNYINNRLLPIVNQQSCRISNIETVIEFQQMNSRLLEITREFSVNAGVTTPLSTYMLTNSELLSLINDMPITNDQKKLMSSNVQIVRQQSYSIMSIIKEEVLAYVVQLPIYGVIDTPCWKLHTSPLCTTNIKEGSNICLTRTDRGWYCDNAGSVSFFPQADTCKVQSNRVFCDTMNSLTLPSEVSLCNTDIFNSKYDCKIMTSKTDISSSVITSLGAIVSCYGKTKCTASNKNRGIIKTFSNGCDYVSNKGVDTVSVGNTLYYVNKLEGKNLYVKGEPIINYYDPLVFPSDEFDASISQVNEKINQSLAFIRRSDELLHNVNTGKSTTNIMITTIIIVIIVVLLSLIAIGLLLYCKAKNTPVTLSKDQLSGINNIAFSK
QUANTITY_KIND: Neut IC50 (ug/ml) subtype B (µg/mL)
Your answer should be a plain number; it is taken to be in µg/mL.

BINDER	Neut IC50 (ug/ml) subtype B / µg/mL
ADI-15556 (antibody, V domains shown, IgG) VH: QVQLVQSGAEVKKPGSSVKVSCKASGGNVNIYGISWVRQAPGQGLEWMGGIIPIYDTTKYAQKFQDRVTITADKSTSTAYMELSSLRSEDTAVYFCARDLDYDILTGYSVNYYYYGMDVWGQGTTVTVSS VL: QSVLTQPPSVSGAPGQRVTISCTGSSSNIGAGYDVHWYQQLPGTAPKLLIYGNINRPSGVPDRFSGSKSGTSASLAITGLQAEDEADYYCQSCDSSLSGWVFGGGTKLTIL	0.081
ADI-15572 (antibody, V domains shown) VH: QVQLVQSGAEAKKPGASVKVSCKASGYTFTSYYLHWVRQAPGQGPEWMGIINPGGGSTELSQKFQGRVTLTRDTSTSTVYMEVTSLTSEDTAVYYCARARIQLWAPNYYGMDVWGQGTTVTVSS VL: DIQLTQSPSFLSASVGDRVTITCRASHGITSYLAWYQQKPGNAPKLLIYAASTLQSGVPSRFSGSGSETQFTLTISGLQPEDFATYYCQQLNRYPLTFGQGTKVEIK	6.25
ADI-15583 (antibody, V domains shown, IgG) VH: QVQLVQSGAEVKKPGESLKISCKTSGYKFTNYWIGWVRQMPGKGLEWMGIIYPGDSDARYSPSFQGQVTFSADKSISTAYLQWSSLKASDTAMYYCARQDNSGWADFFPFDYWGQGTLVTVSS VL: ETTLTQSPGTLSLSPGERATLSCRASHSFSSSYLAWYQQKPGQAPRLLIYAASNRATGIPDRFSGSGSGTDFTLTISRLEPEDFAVYFCQQYDSSPWTFGQGTKVEIK	0.377

Q) Please supply the value of reported Neut IC50 (ug/ml) subtype B for the item ADI-15568 (antibody, V domains shown, IgG) VH: QVQLVESGAEVQKPGASVKISCKASGYKFISYSIHWVRQAPGQGLEWMGVINPGGGLTNYAQKFQDRLTMTRDTSTATVTMELRSLRSDDRAVYFCGREDSYCSGDSCFNSGSGRWVDSWGQGTLVTVSS VL: DIQVTQSPSSLSASVGDRVTITCRASQSVITYLNWYQQKPGKAPQLLVYAASILQSGVPSSFSGSGSGTDFTLTISSLQPEDFATYYCQQTYSTPHTFGQGTKVDIK
A) 0.033

Q) Please supply the value of reported Neut IC50 (ug/ml) subtype B for the item ADI-15595 (antibody, V domains shown) VH: EVQLVESGPTLVKPTQTLTLTCTFSGFSLTTIGVGVGWIRQPPGKALEFLGIVYWDDDKRYSPSLKSRLTITKDTSKNQVVLTMTTLAPEDTGTYYCTYARYSSALFGGYYFHSWGQGTLVTVSS VL: QSVLTQPPSVSVAPGQTAKITCGGNDIGSRSVHWYQQKPGQAPVLVVYDNSDRPSGIPERFSGSNSGDTATLTISRVEAGDEAVYYCQVWESSGDHPRIFGGGTKLTVL
A) 0.17

Q) Please supply the value of reported Neut IC50 (ug/ml) subtype B for the item ADI-15624 (antibody, V domains shown, IgG; also called Antibody Number 189) VH: QVQLVQSGGGLVKAGGSLRLSCAASGFTISGFYMTWIRQAPGKGLEWVSSISGSSSYTNYADSVKGRFTISRDNAKNSLYLHMNSLRAEDTAVYYCARIRPDDSSGYPDYWGQGTLVTVSS VL: QSVLTQPPSVSGAPGQRVTISCTGSSSNIGAGYDVHWCQQLPGTAPKLLIYGNNNRPSGVPDRFSGSKSGTSASLAITGLQAEDEADYYCQSYDSSLSGFVFGTGTKVTVL
A) 0.033

Q) Please supply the value of reported Neut IC50 (ug/ml) subtype B for the item ADI-15565 (antibody, V domains shown, IgG) VH: QVQLVQSGAEVKKPGASVKVSCKASGYTFTNDINWVRQATGQGLEWMGWMNPNNGHTGYAQSFEGRVSMTRNSAINTAYLELSSLRFDDTAIYYCVYNFWSDSSVSWGQGTLVTVSS VL: QSVVTQPPSVSGAPGQSVAISCTGSSSNIGPGYDVHWYQQLPGAAPKLLIYGDSNRPSGVPDRFSTSKSGTSVSLAITGLQAEDEADYYCQSYDSSLRGYVFGTGTKLTVL
A) 6.25
